- EXPERIMENTAL SYSTEM: Cytochrome P450 26A1 (Homo sapiens)
- Sequence (O43174 whole entry): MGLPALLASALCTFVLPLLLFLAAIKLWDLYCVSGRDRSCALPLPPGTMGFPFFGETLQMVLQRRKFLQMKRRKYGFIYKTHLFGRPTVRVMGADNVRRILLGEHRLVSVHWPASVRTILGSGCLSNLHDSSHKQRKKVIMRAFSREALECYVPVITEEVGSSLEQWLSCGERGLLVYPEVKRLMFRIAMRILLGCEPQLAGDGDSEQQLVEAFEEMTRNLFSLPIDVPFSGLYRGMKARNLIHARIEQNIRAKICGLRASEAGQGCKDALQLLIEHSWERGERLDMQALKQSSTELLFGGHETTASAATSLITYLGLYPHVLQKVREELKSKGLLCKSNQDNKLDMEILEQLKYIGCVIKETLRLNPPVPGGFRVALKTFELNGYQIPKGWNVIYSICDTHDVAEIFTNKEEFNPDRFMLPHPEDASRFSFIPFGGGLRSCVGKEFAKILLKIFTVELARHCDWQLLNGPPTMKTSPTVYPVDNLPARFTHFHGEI
- TEST PROTOCOL: Cell-Based Inhibitor Assay: CYP26A1 or CYP26B1 stably transfected HeLa cells were maintained in Minimum Essential Medium (MEM) containing 10% fetal bovine serum (FBS) and 100 μg/mL hygromycin. Exponentially growing cells were harvested by incubation in trypsin. Cells were then collected and re-plated in 48-well culture plates at 5×10^5 cells in 0.2 mL of culture medium containing 0.05 μCi [3H]-RA in the presence or absence of increasing concentrations of a test compound. The test compounds were diluted in dimethyl sulfoxide (DMSO) and then added in duplicate to wells at 0.01, 0.1, 1, 10 and 100 μM final concentration. […] Cells were incubated for 3 hours at 37° C. Retinoids were then extracted using the procedure of Bligh, et al., (1959), Canadian Journal of Biochemistry 37, 911-917, which was modified by using dichloromethane instead of chloroform. Each sample's water soluble radioactivity level was quantified using a β-scintillation counter (using Ecolume scintillation fluid, available from MP Biomedicals of Solon, Ohio, USA).
READOUT KIND: IC50 (nM)
Numeric only. Scale: nM

Cc1cc2c(cc1S(=O)(=O)Nc1ccc(CC(=O)O)cc1)C(C)(C)CCC2(C)C: 470

Now consider the entry below.
Record summary for "Cc1ccc(NS(=O)(=O)c2cc(C)c3c(c2)C(C)(C)CC(C)(C)O3)cc1" : reported IC50 = 1900

Ref: ChEMBL document CHEMBL5728169
